Reported viability values follow for various compounds
- measurement context: cell viability/%
Where a SMILES comes first, the peptide text is derived from it. [ ]: non-standard residue; d: D form. The star is where a group is joined. NHCH2CH2OH = OCCN*; For = O=C*
Provide only the numeric value, understood in %.

CC(C)C[C@@H](NC(=O)[C@H](Cc1c[nH]c2ccccc12)NC(=O)[C@@H](CC(C)C)NC(=O)[C@H](Cc1c[nH]c2ccccc12)NC(=O)[C@H](NC(=O)[C@H](Cc1c[nH]c2ccccc12)NC(=O)[C@H](NC(=O)[C@@H](NC(=O)[C@H](NC(=O)[C@H](C)NC(=O)[C@H](NC(=O)[C@H](C)NC(=O)CNC(=O)[C@@H](NC=O)C(C)C)C(C)C)C(C)C)C(C)C)C(C)C)C(C)C)C(=O)N[C@@H](Cc1c[nH]c2ccccc12)C(=O)NCCO [compound 1119] (For-VGA[dV]A[dV]V[dV]W[dV]W[dL]W[dL]W-NHCH2CH2OH) ... 100

CC(C)C[C@@H](NC(=O)[C@H](C)NC(=O)CNC(=O)[C@@H](NC=O)C(C)C)C(=O)N[C@@H](C)C(=O)N[C@H](CC(C)C)C(=O)N[C@H](C(=O)N[C@@H](C(=O)N[C@@H](Cc1c[nH]c2ccccc12)C(=O)N[C@@H](C(=O)N[C@@H](Cc1c[nH]c2ccccc12)C(=O)N[C@@H](C(=O)N[C@@H](Cc1c[nH]c2ccccc12)C(=O)N[C@H](CC(C)C)C(=O)N[C@@H](Cc1c[nH]c2ccccc12)C(=O)NCCO)C(C)C)[C@H](C)O)[C@H](C)O)C(C)C [compound 3782] (For-VGA[dL]A[dL]V[dT]W[dT]W[dV]W[dL]W-NHCH2CH2OH) has a reported viability of 100

* * *

- Tested on: P388 mouse leukemia cells
- measurement context: 92 h
Where a SMILES comes first, the peptide text is derived from it. [ ]: non-standard residue; d: D form. The star is where a group is joined. NHCH2CH2OH = OCCN*; For = O=C*
measure name: cell viability/% (%)
Provide only the numeric value, understood in %.

The molecule CNC(=O)C[C@@H](NC(=O)[C@H](Cc1c[nH]c2ccccc12)NC(=O)[C@@H](CC(C)C)NC(=O)[C@H](Cc1c[nH]c2ccccc12)NC(=O)[C@H](NC(=O)[C@H](Cc1c[nH]c2ccccc12)NC(=O)[C@@H](CC(C)C)NC(=O)[C@@H](NC(=O)[C@H](NC(=O)[C@H](C)NC(=O)[C@H](NC(=O)[C@H](C)NC(=O)CNC(=O)[C@@H](NC=O)C(C)C)C(C)C)C(C)C)C(C)C)C(C)C)C(=O)N[C@@H](Cc1c[nH]c2ccccc12)C(=O)NCCO [compound 2526] (For-VGA[dV]A[dV]V[dL]W[dV]W[dL]W[dD](NHMe)W-NHCH2CH2OH) , when measured on P388 mouse leukemia cells, yielded cell viability/% of 100.0

* * *

- measurement context: cytotoxicity against P388 cells/IC50
Where a SMILES comes first, the peptide text is derived from it. [ ]: non-standard residue; d: D form. The star is where a group is joined. NHCH2CH2OH = OCCN*; For = O=C*
measure name: IC50 (nM)
Provide only the numeric value, understood in nM.

CC(C)C[C@@H](NC(=O)[C@H](C)NC(=O)CNC(=O)[C@@H](NC=O)C(C)C)C(=O)N[C@@H](C)C(=O)N[C@@H](C(=O)N[C@H](C(=O)N[C@@H](C(=O)N[C@@H](Cc1c[nH]c2ccccc12)C(=O)N[C@@H](C(=O)N[C@@H](Cc1c[nH]c2ccccc12)C(=O)N[C@H](CC(C)C)C(=O)N[C@@H](Cc1c[nH]c2ccccc12)C(=O)N[C@@H](C(=O)N[C@@H](Cc1c[nH]c2ccccc12)C(=O)NCCO)C(C)C)C(C)C)C(C)C)C(C)C)C(C)C [B04] (For-VGA[dL]A[dV]V[dV]W[dV]W[dL]W[dV]W-NHCH2CH2OH) ... 40.6

CC(C)C[C@@H](NC(=O)[C@H](C)NC(=O)CNC(=O)[C@@H](NC=O)C(C)C)C(=O)N[C@@H](C)C(=O)N[C@@H](C(=O)N[C@H](C(=O)N[C@@H](C(=O)N[C@@H](Cc1c[nH]c2ccccc12)C(=O)N[C@@H](C(=O)N[C@@H](Cc1c[nH]c2ccccc12)C(=O)N[C@@H](C(=O)N[C@@H](Cc1c[nH]c2ccccc12)C(=O)N[C@@H](C(=O)N[C@@H](Cc1c[nH]c2ccccc12)C(=O)NCCO)C(C)C)C(C)C)C(C)C)C(C)C)C(C)C)C(C)C [B03] (For-VGA[dL]A[dV]V[dV]W[dV]W[dV]W[dV]W-NHCH2CH2OH) has a reported IC50 of 37.6

CC(C)C[C@@H](NC(=O)[C@H](C)NC(=O)CNC(=O)[C@@H](NC=O)C(C)C)C(=O)N[C@@H](C)C(=O)N[C@@H](C(=O)N[C@H](C(=O)N[C@@H](C(=O)N[C@@H](Cc1c[nH]c2ccccc12)C(=O)N[C@H](CC(C)C)C(=O)N[C@@H](Cc1c[nH]c2ccccc12)C(=O)N[C@H](CC(C)C)C(=O)N[C@@H](Cc1c[nH]c2ccccc12)C(=O)N[C@@H](C(=O)N[C@@H](Cc1c[nH]c2ccccc12)C(=O)NCCO)C(C)C)[C@H](C)O)C(C)C)C(C)C [B12] (For-VGA[dL]A[dV]V[dT]W[dL]W[dL]W[dV]W-NHCH2CH2OH) has a reported IC50 of 387

CC(C)C[C@@H](NC(=O)[C@H](C)NC(=O)CNC(=O)[C@@H](NC=O)C(C)C)C(=O)N[C@@H](C)C(=O)N[C@H](CC(C)C)C(=O)N[C@H](C(=O)N[C@H](CC(C)C)C(=O)N[C@@H](Cc1c[nH]c2ccccc12)C(=O)N[C@H](CC(C)C)C(=O)N[C@@H](Cc1c[nH]c2ccccc12)C(=O)N[C@@H](C(=O)N[C@@H](Cc1c[nH]c2ccccc12)C(=O)N[C@@H](C(=O)N[C@@H](Cc1c[nH]c2ccccc12)C(=O)NCCO)C(C)C)[C@H](C)O)C(C)C [B11] (For-VGA[dL]A[dL]V[dL]W[dL]W[dT]W[dV]W-NHCH2CH2OH) has a reported IC50 of 250
